Origin of measurements: PubChem BioAssay AID686978

- assay_method_text: qHTS for Inhibitors of human tyrosyl-DNA phosphodiesterase 1 (TDP1): qHTS in cells in absence of CPT; note: nearly all actives have a fitted effect of over 55% in size
- assay_setup: DT40 Tdp1-/- hTDP1 cells, no CPT, ATP luminescence, 48 h
Among all 420,000 compounds or so, about 64,000 (15%) were called active. Inconclusive results (about 27%) are left out. Calls come from the whole dose curve; as a rule, active = well fitted inhibition curve with a large enough effect; inconclusive = small, poorly fitted or top-dose-only effect; inactive = flat fitted curve, though single readings scatter. Only a sample is shown.
Labels: 1 (yes) (active), 0 (no) (inactive)

# compound, classification
rows = [
    ("O=C(O)/C=C/c1cn(Cc2ccccc2)nc1-c1cccs1", "0 (no)"),
    ("Cc1c(C(=O)N/N=C/c2ccccc2)[nH]c2c([N+](=O)[O-])cccc12", "1 (yes)"),
    ("O=C(NCC(=O)N1CCC2(CC1)NCCc1[nH]cnc12)c1ccc(Br)cc1", "0 (no)"),
    ("CCCOC(=O)c1ccc(N2C(=O)c3ccccc3C2=O)cc1", "0 (no)"),
    ("O=C(Nc1nnc(CCc2ccccc2)s1)C1CCCO1 (stereo unspecified)", "0 (no)"),
    ("O=C(O)c1ccccc1OCc1ccccc1Cl", "0 (no)"),
    ("O=C1OC(c2ccc(Cl)cc2)=N/C1=C\\c1cccnc1", "1 (yes)"),
    ("CC(CNC(=O)c1ccc(N)cc1)NC(=O)c1ccc(N)cc1 (stereo unspecified)", "0 (no)"),
    ("Cc1ccccc1C1=N/C(=C/c2cccnc2)C(=O)O1", "0 (no)"),
    ("COc1ccc(NC(=O)CN(C)C(=O)c2cc(C)oc2C)cc1", "0 (no)"),
    ("NS(=O)(=O)c1ccc2nc(NC(=O)CS(=O)(=O)c3ccc(F)cc3)sc2c1", "0 (no)"),
]
